Attribution: ChEMBL document CHEMBL1147085

assay: Drug level in Sprague-Dawley rat plasma at 5 mg/kg, iv; format: ADME, organism-based; parameters: dose 5 mg/kg, route intravenous
ASSAY READOUT: C0

{"SMILES INPUT": "Cc1cc(-c2c(Cl)cccc2Cl)cc2nnc(Nc3ccc(OCC[N+]4([O-])CCCC4)cc3)nc12", "C0": "12200 ng/mL"}

Now for the compound whose C0 we want.
input: Entry Cc1cc(-c2c(Cl)cccc2Cl)cc2nnc(Nc3ccc(OCCN4CCCC4)cc3)nc12 : reported C0 = ?
output: 1650 ng/mL

====

biological target: Tyrosine-protein kinase Lyn (Homo sapiens)
Sequence (P07948 whole entry): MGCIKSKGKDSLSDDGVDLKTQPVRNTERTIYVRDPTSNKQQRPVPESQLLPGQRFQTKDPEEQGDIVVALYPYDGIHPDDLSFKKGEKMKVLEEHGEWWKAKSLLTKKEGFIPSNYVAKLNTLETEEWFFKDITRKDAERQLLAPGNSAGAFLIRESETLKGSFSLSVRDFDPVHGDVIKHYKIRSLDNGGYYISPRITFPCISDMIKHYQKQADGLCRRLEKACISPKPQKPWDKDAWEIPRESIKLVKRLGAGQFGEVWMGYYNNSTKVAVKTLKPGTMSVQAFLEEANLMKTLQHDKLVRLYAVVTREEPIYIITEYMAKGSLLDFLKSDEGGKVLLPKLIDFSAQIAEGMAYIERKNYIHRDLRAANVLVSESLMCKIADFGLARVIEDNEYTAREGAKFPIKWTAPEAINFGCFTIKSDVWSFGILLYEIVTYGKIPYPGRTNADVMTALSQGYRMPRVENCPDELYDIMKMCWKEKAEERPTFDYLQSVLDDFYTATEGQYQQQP
ASSAY READOUT: Ki

input: Request: Ki, test system Tyrosine-protein kinase Lyn (Homo sapiens), entry Cc1cc(-c2c(Cl)cccc2Cl)cc2nnc(Nc3ccc(OCC[N+]4([O-])CCCC4)cc3)nc12
output: 4.19 nM

====

assay: AUC (0 to infinity) in Beagle dog at 5 mg/kg, iv; type: ADME, organism-based, Canis lupus familiaris; design: time infinity, dose 5 mg/kg, route intravenous; conditions: plasma
ASSAY READOUT: AUC(0-inf) (ng·h/mL)
Report as a plain number; the unit ng·h/mL is understood.

input: Entry Cc1cc(-c2c(Cl)cccc2Cl)cc2nnc(Nc3ccc(OCCN4CCCC4)cc3)nc12 : reported AUC(0-inf) = ?
output: 5800

====

assay: AUC (0 to infinity) in BALB/c mouse at 5 mg/kg, iv; assay type: ADME, organism-based; parameters: time infinity, dose 5 mg/kg, route intravenous; conditions: plasma
ASSAY READOUT: AUC(0-inf) (ng·h/mL)
Report as a plain number; the unit ng·h/mL is understood.

{"SMILES INPUT": "Cc1cc(-c2c(Cl)cccc2Cl)cc2nnc(Nc3ccc(OCCN4CCCC4)cc3)nc12", "AUC(0-inf) (ng·h/mL)": 4140}

Now for the compound whose AUC(0-inf) we want.
input: Entry Cc1cc(-c2c(Cl)cccc2Cl)cc2nnc(Nc3ccc(OCC[N+]4([O-])CCCC4)cc3)nc12 : reported AUC(0-inf) = ?
output: 5350

====

target: Tyrosine-protein kinase Lck (Homo sapiens, UniProt P06239)
Sequence (P06239 whole entry): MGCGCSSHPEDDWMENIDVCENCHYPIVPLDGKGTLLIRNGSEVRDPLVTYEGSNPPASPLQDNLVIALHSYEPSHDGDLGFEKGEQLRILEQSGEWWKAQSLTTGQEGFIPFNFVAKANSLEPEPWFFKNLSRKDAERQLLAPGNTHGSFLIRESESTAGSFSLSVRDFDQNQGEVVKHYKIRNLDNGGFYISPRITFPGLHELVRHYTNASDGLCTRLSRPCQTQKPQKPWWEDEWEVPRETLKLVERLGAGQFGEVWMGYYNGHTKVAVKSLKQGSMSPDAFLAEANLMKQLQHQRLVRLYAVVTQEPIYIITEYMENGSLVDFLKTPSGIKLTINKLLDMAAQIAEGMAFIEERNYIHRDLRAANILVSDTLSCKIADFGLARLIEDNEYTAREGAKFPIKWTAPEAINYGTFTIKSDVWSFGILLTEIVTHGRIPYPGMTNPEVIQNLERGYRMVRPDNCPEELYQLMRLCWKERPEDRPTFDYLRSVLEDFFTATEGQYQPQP
ASSAY READOUT: pKi
Interpret pKi as the negative base-10 log of the concentration measured in mol/L.

input: Entry Cc1cc(-c2c(Cl)cccc2Cl)cc2nnc(Nc3ccc(OCC[N+]4([O-])CCCC4)cc3)nc12 : reported pKi = ?
output: 7.93

====

assay: AUC (0 to last) in Sprague-Dawley rat at 25 mg/kg, po; assay type: ADME, organism-based; set-up: time 0 - last, dose 25 mg/kg, route oral; conditions: plasma
ASSAY READOUT: AUC(0-t) (ng·h/mL)
Report as a plain number; the unit ng·h/mL is understood.

{"SMILES INPUT": "Cc1cc(-c2c(Cl)cccc2Cl)cc2nnc(Nc3ccc(OCC[N+]4([O-])CCCC4)cc3)nc12", "AUC(0-t) [ng·h/mL]": 467}

Now for the compound whose AUC(0-t) we want.
input: Entry Cc1cc(-c2c(Cl)cccc2Cl)cc2nnc(Nc3ccc(OCCN4CCCC4)cc3)nc12 : reported AUC(0-t) = ?
output: 7980

====

assay: Clearance in Beagle dog at 5 mg/kg, iv; assay type: ADME, organism-based, Canis lupus familiaris; set-up: dose 5 mg/kg, route intravenous; conditions: in vivo
ASSAY READOUT: clearance (mL/min/kg)
Report as a plain number; the unit mL/min/kg is understood.

input: Entry Cc1cc(-c2c(Cl)cccc2Cl)cc2nnc(Nc3ccc(OCCN4CCCC4)cc3)nc12 : reported clearance = ?
output: 14.5
